- tgt: Tyrosine-protein kinase Mer (Homo sapiens)
- Sequence (whole entry): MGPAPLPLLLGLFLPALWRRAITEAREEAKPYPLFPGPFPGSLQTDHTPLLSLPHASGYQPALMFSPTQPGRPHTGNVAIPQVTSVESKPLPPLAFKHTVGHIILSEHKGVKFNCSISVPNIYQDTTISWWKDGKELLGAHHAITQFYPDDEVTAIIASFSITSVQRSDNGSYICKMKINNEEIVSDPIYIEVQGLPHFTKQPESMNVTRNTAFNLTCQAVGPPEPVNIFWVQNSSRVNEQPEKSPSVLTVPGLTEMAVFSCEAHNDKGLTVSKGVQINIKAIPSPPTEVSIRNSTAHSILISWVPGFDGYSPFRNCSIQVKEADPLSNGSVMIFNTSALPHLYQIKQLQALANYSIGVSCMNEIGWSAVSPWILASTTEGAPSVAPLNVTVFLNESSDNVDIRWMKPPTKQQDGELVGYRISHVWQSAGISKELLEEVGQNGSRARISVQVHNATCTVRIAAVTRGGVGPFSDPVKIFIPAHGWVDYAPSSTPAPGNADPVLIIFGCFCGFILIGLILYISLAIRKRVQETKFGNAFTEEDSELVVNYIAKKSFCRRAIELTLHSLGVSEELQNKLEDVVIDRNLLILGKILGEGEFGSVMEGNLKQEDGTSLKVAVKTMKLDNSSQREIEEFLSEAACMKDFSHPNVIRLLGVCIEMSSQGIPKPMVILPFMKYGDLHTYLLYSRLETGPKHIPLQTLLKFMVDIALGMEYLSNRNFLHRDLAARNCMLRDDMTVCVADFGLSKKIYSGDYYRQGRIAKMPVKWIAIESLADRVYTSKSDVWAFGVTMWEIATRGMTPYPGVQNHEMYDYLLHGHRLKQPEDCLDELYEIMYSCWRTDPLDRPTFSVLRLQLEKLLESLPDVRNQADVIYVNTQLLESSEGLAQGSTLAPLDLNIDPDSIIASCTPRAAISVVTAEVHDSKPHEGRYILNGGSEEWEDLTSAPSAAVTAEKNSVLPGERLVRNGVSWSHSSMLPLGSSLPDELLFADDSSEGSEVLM
- cond: at 10 µM
property: inhibition (%)

// worked examples, inhibition included
molecule | readoutUnit | testResult
CC(=O)Nc1cccc(C#Cc2cncnc2Nc2ccc(OCc3cccc(F)c3)c(Cl)c2)c1 | % | -1
O=C(Nc1n[nH]c2cc(-c3cc(F)ccc3F)ccc12)C1CC1 | % | 6
N#Cc1c(NC(=O)CN2CCOCC2)sc2c1CCCC2 | % | -1

A: CNC(=O)c1ncccc1Nc1nc(Nc2cc3c(cc2OC)CCCN3C(=O)CN(C)C)nc2[nH]ccc12
B: NS(=O)(=O)c1ccc(N/N=C2\C(=O)Nc3ccc4ncccc4c32)cc1
C: O=C(Nc1n[nH]c2cc(-c3ccccc3)ccc12)C1CC1
Lookup: Ordering criterion: inhibition; begin with the maximum. In plain terms: list the labels in the order you were asked to.
Found: A, B, C

1: COC(=O)Nc1nc2cc(Oc3ccc(NC(=O)Nc4cccc(Br)c4)cc3)ccc2[nH]1
2: Cc1nnc(-c2ccc(C)c(-c3ccc(C(=O)Nc4cccc(C#N)c4)cc3)c2)o1
Lookup: Pick one: 1 or 2 . Which has the bigger inhibition number? Pick one and reply with its label.
Found: 2
(2: 7%, 1: 4%)

I: CCNC(=O)O[C@H]1CN[C@H](C#Cc2cc3ncnc(Nc4ccc(OCc5cccc(F)c5)c(Cl)c4)c3s2)C1
II: O=C(Nc1n[nH]c2nc(-c3ccc(O)cc3)c(Br)cc12)C1CC1
Lookup: Pick one: I or II . Which has the bigger inhibition number? Pick one and reply with its label.
Found: II
(II: 39%, I: 2%)

Values from ChEMBL document CHEMBL2007661
